Here's what we have: Kd numbers for GFPxm163 (Aequorea macrodactyla).
MEASURE_NAME: Kd (mM)

• Br [bromide] = 46.2
• O=[N+]([O-])O [nitrate] = 24.1
• I [iodide] = 6.4

Data credit: paper PMC9645410
